Test Name: self-splicing fitness, log relative to wild type (ln ratio); higher = more splicing; Tetrahymena group I intron in knt gene, E. coli kanamycin selection, DiMSum; sequences stand for … in CUCUCU…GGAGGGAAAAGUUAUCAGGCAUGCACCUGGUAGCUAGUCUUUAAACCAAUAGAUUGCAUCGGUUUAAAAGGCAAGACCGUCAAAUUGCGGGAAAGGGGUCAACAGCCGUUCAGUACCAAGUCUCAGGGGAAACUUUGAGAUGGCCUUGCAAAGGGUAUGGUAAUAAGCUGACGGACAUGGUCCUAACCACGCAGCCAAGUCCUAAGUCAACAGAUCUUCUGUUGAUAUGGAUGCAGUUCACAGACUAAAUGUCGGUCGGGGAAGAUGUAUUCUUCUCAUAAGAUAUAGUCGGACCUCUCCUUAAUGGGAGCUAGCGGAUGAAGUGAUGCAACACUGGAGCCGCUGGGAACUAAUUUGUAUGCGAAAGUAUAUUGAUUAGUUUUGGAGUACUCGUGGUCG;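 also: selection with 25 µg/mL kanamycin versus none on LB agar overnight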
Study Conditions: 30 °C
Measured self-splicing fitness (ln) by item
Lab note: jot down the number only; don't add units.

Examples with their reported self-splicing fitness (ln) follow.
UCAUAGCAAUAUUACGUGCU :: -2.6
GGAAAGCAAUAUUACGGUGU :: -2.29
AGCAAGCAAUAUUACGGCUU :: -3.17
AUGCAGCAAUAUUACGAAUU :: -1.9
GAAAAGCAAUAUUACGUUUC :: -2.95
UUCUAGCAAUAUUACGGCCC :: -1.62

Data request: Quick check: self-splicing fitness (ln) of `UAUGAGCAAUAUUACGCGCU` ?
Data returned: -3.68

Data request: Need self-splicing fitness (ln), item `GCGAAGCAAUAUUACGUUAG`
Data returned: -2.77

Data request: Which measured self-splicing fitness (ln) value corresponds to `CAUUAGCAAUAUUACGUUAG` ?
Data returned: -0.927

Data request: Look up self-splicing fitness (ln) for this sequence: `GGGGAGCAAUAUUACGAGUU`
Data returned: -3.08

---

Test Name: self-splicing fitness, log relative to wild type (ln ratio); higher = more splicing; Tetrahymena group I intron in knt gene, E. coli kanamycin selection, DiMSum; sequences stand for … in CUCUCU…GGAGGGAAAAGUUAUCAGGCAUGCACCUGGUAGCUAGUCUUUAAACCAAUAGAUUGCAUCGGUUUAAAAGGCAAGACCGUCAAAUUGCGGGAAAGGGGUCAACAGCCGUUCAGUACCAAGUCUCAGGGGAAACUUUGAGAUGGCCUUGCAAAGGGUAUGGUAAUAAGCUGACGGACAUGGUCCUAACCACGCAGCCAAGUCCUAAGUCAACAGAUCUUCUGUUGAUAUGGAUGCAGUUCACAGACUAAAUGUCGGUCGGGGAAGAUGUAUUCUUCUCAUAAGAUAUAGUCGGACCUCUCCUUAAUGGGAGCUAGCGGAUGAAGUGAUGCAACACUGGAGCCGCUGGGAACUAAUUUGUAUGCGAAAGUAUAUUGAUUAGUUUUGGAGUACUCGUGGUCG
Study Conditions: 30 °C
Readings of self-splicing fitness (ln) for the listed sequences
Could you keep your reply to the number by itself?

CGUCAGCAAUAUUACGCUGG :: -2.6

Data request: Recorded self-splicing fitness (ln) for `AACGAGCAAUAUUACGGGUC` , please?
Data returned: -3.17
